Collected set of IC50 measured with ALK tyrosine kinase receptor (Homo sapiens) across studies.
recordedMetric: IC50

                             moleculesmiles  recordedmetric           testvalue
0  Cc1ccc(OC[C@H](O)CNc2cc[nH]c(=O)c2-c2nc3cc4c(cc3[nH]2)C(=O)N(C2CCN(CCN(C)C)CC2)C4=O)c(C)c1            IC50    5000 to 15000 nM
1  O=C(c1cnc2c(c1)N(Cc1cc(Cl)ccc1Cl)CCN2)N1CCC(N2CCOCC2)CC1            IC50    1000 to 10000 nM
2  Cc1c(C#N)c(-c2ccc(O)cc2)nc2[nH]nc(-c3cccc(N4CCNCC4)c3)c12            IC50      100 to 1000 nM
3  CCc1nn(C)c2c1/C=C/c1n[nH]c3ccc(cc13)-c1cnn(C)c1O[C@@H](C)COC2            IC50             5.05 nM
4  CCCC(=O)Nc1ccc(F)c(Cc2c[nH]c3ncc(-c4cccnc4)cc23)c1F            IC50          ≤ 10000 nM
5  COc1cc(N2CCC(N3CCN(S(C)(=O)=O)CC3)CC2)ccc1Nc1nc(Nc2cccc(F)c2C(N)=O)c2cc[nH]c2n1            IC50       0.251 to 1 nM
6  O=C(NCc1ccc(-c2ccccc2)cc1)c1cnc2c(c1)N(Cc1cc(Cl)ccc1Cl)CCN2            IC50  10000 to 100000 nM

====

Collected set of IC50 measured with ALK tyrosine kinase receptor (Homo sapiens) across studies.
recordedMetric: IC50

In [3]: df
Out[3]:
                                    compound  recordedmetric           testvalue
 0    O=C(c1ccccc1)N1CCNc2ncc(-c3cccnc3)cc21            IC50         > 100000 nM
 1  CN1CCN(c2cc(-c3cnc4c(c3)C(Oc3cccc(Cl)c3)CCN4)ccn2)CC1 (centres unmarked)            IC50    1000 to 10000 nM
 2  Cc1n[nH]c2nc(-c3cc4cc[nH]c4cc3F)c(C#N)c(-c3ccc(N4CCNCC4)cc3)c12            IC50      100 to 1000 nM
 3  O=C(c1cccc(-c2cnc3c(c2)N(Cc2cc(Cl)ccc2C(F)(F)F)CCN3)c1)N1CCN(c2cccc(Cl)c2)CC1            IC50      100 to 1000 nM
 4  O=C(NCc1ccncc1)c1cccc(-c2cnc3c(c2)N(Cc2cc(Cl)ccc2C(F)(F)F)CCN3)c1            IC50            < 100 nM
 5  COc1cc(N2CCN(C(C)C)CC2)ccc1Nc1nc(Nc2ccc(Br)cc2C(N)=O)c2cc[nH]c2n1            IC50       0.251 to 1 nM
 6  O=C(c1ccc(-c2cnc3c(c2)N(Cc2c(F)ccc(F)c2Cl)CCN3)cc1)N1CCC(N2CCCC2)CC1            IC50            < 100 nM
 7  COc1cccc(C(=O)c2c[nH]c3ncc(-c4cccc(NC(C)=O)c4)cc23)c1F            IC50          ≤ 10000 nM
 8  O=C(c1ccc(-c2cnc3c(c2)N(Cc2cc(F)ccc2F)CCN3)cn1)N1CCOCC1            IC50      100 to 1000 nM
 9  O=C1CNc2ncc(I)cc2N1Cc1cc(C(F)(F)F)ccc1Cl            IC50  10000 to 100000 nM
10  O=C(c1cccc(-c2cnc3c(c2)N(Cc2cc(Cl)ccc2C(F)(F)F)CCN3)c1)N1CCC(c2ccccc2)CC1            IC50      100 to 1000 nM
11  CN1CCN(C(=O)c2ccc(-c3cnc4c(c3)N(C(=O)c3cc(F)ccc3F)CCN4)cc2)CC1            IC50  10000 to 100000 nM
12  O=C(c1ccc(-c2cnc3c(c2)N(Cc2cc(Cl)ccc2C(F)(F)F)CCN3)cc1)N1CCN(CC2CCCCC2)CC1            IC50    1000 to 10000 nM
13  CCCNC(=O)c1c(F)cccc1Nc1nc(Nc2cc3c(cc2OC)CCN3C(=O)CN(C)C)nc2[nH]ccc12            IC50       0.251 to 1 nM
14  COc1cc(C2=CCN(C(C)C)CC2)ccc1Nc1ncc(Cl)c(Nc2ccsc2S(=O)(=O)C(C)C)n1            IC50              < 1 nM
15  Cc1ccc(SC[C@H](O)CNc2cc[nH]c(=O)c2-c2nc3cc4c(cc3[nH]2)C(=O)N(C2CCN(C)CC2)C4=O)c(C)c1            IC50      500 to 5000 nM
16  N#Cc1c(-c2c(F)ccc(F)c2F)nc2[nH]nc(-c3ccco3)c2c1-c1ccc(N2CCOCC2)o1            IC50    1000 to 10000 nM
17  Cc1c(C#N)c(-c2ccc(O)cc2F)nc2[nH]nc(-c3ccc(N(C)CCN(C)C)nc3)c12            IC50      100 to 1000 nM
18  O=C(NCc1ccc(Cl)cc1)c1cccc(-c2cnc3c(c2)N(Cc2cc(Cl)ccc2C(F)(F)F)CCN3)c1            IC50      100 to 1000 nM
19    CC1(C)Nc2ncc(I)cc2N(Cc2cc(F)ccc2F)C1=O            IC50         > 100000 nM
20  O=C(NCc1ccccc1Cl)c1cccc(-c2cnc3c(c2)N(Cc2cc(Cl)ccc2C(F)(F)F)CCN3)c1            IC50      100 to 1000 nM
21  O=C(c1cccc(-c2cnc3c(c2)N(Cc2cc(Cl)ccc2C(F)(F)F)CCN3)c1)N1CCC2(CC1)C(=O)NCN2c1ccccc1            IC50      100 to 1000 nM
22         Fc1cc(F)c(CN2CCNc3ncc(I)cc32)cc1F            IC50         > 100000 nM
23  CCCN1CCC=C(c2ccc(Nc3nc(Nc4cc(F)ccc4C(N)=O)c4cc[nH]c4n3)c(OC)c2)C1            IC50       0.251 to 1 nM
24  CN1CCN(c2ccc(C(=O)Nc3n[nH]c4ccc(S(=O)(=O)c5ccccc5)cc34)c(NC(=O)[C@@H]3CCCO3)c2)CC1            IC50              170 nM
25  O=C(c1cccc(-c2cnc3c(c2)N(Cc2cc(Cl)ccc2C(F)(F)F)CCN3)c1)N1CCN(CCc2ccccc2)CC1            IC50      100 to 1000 nM
26  O=C(c1ccc(-c2cnc3c(c2)N(Cc2cc(Cl)ccc2C(F)(F)F)CCN3)cc1)N1CCN(CCc2ccccn2)CC1            IC50            < 100 nM
27  O=C(c1cccc(-c2cnc3c(c2)N(Cc2cc(Cl)ccc2C(F)(F)F)CCN3)c1)N1CCN(C(=O)C2CCCO2)CC1 (centres unmarked)            IC50      100 to 1000 nM
28  Cc1ccc(OC[C@H](O)CNc2cc[nH]c(=O)c2-c2nc3cc4c(cc3[nH]2)CN(C2CCN(C)CC2)C4=O)c(Br)c1            IC50      500 to 5000 nM

====

pIC50: −log10 of the molar value.
Collected set of pIC50 measured with ALK tyrosine kinase receptor (Homo sapiens, UniProt Q9UM73) across studies.
recordedMetric: pIC50

>>> df
                             moleculesmiles  recordedmetric     testvalue
0  CCN1Cc2c(c(OC(C)C)nn2CCO)/C=C/c2n[nH]c3cc(F)c(cc23)-c2cnn(C)c2O[C@@H](C)C1           pIC50          8.69
1  O=C(c1ccc(-c2cnc3c(c2)N(Cc2cc(Cl)ccc2C(F)(F)F)CCN3)cc1)N1CCN(c2ncccn2)CC1           pIC50  6.00 to 7.00
2  Cc1ccc(Cl)cc1OC[C@@H](O)CNc1ccnc(O)c1-c1nc2cc3c(cc2[nH]1)C(=O)N(C1CCN(C)CC1)C3=O           pIC50  5.30 to 6.30
3  COc1ccc(CN2CCN(C(=O)c3cnc4c(c3)N(Cc3cc(Cl)ccc3Cl)CCN4)CC2)cc1           pIC50  4.00 to 5.00
4  Cc1snc2c1/C=C/c1n[nH]c3ccc(cc13)-c1cnn(C)c1OCCOC2           pIC50          7.22
5  Cc1n[nH]c2nc(-c3ccc(O)cc3F)c(C#N)c(-c3ccc(N4CCC(O)CC4)o3)c12           pIC50        > 7.00
6  O=C1c2cc3nc(-c4c(NC[C@@H](O)c5cccc(Cl)c5)cc[nH]c4=O)[nH]c3cc2C(=O)N1CCO           pIC50        < 4.82
